# target_or_system: LK35.2-hPD-L1 cells / PE-labeled PD-1-Ig (Homo sapiens, UniProt Q9NZQ7)
# Construct: expressed in transfected cells; host or cells: LK35.2 mouse B cell line
# Sequence (Q9NZQ7 19-290): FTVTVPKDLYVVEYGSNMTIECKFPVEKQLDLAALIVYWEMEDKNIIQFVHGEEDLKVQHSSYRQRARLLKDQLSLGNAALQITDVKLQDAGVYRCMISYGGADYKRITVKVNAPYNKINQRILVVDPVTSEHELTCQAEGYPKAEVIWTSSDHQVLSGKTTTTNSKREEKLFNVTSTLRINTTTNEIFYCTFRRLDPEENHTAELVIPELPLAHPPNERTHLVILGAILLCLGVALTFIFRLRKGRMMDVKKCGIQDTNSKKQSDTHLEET
# protocol: LK35.2-hPD-L1 cell binding high-content screening assay
# Assay type: cell-based
# assay_conditions: cluster symbol; cell line of CBA not given (LK35.2-hPD-L1 or 293T-hPD-L1); read-out: CBA IC50 cluster
pIC50: −log10 of the molar value. Positions of bridges follow the written chain, without caps; N, C: chain ends. Non-standard residues stand in square brackets, D forms with d. Residues, ends and D or L forms follow the SMILES beside them. Phe(4-Cl) = N[C@@H](Cc1ccc(Cl)cc1)C(=O)O; NMeF = CN[C@@H](Cc1ccccc1)C(=O)O; NMeNle = CCCC[C@H](NC)C(=O)O; NMeA = CN[C@@H](C)C(=O)O; Sar = CNCC(=O)O
value_kind: pIC50

molecule	target_or_system	pIC50
CCCC[C@H]1C(=O)N(C)[C@@H](CCCC)C(=O)N[C@@H](CCCNC(=N)N)C(=O)N[C@H](C(=O)NCC(N)=O)CSCC(=O)N[C@@H](Cc2ccccc2)C(=O)N(C)[C@@H](C)C(=O)N[C@@H](CC(N)=O)C(=O)N2CCC[C@H]2C(=O)N[C@@H](CO)C(=O)N[C@@H](CC(C)C)C(=O)N(C)CC(=O)N[C@@H](Cc2c[nH]c3ccccc23)C(=O)N[C@@H](CO)C(=O)N[C@@H](Cc2c[nH]c3ccccc23)C(=O)N1C [Example 1088] ({CH2CO}-F[NMeA]NPSL[Sar]WSW[NMeNle][NMeNle]RCG-NH2; thioether N-14)	LK35.2-hPD-L1 cells / PE-labeled PD-1-Ig (Homo sapiens, UniProt Q9NZQ7)	7.14 to 8.32

Look up pIC50 for this molecule: CCCC[C@H]1C(=O)N(C)CC(=O)N[C@@H](CC(=O)O)C(=O)N[C@@H](C(C)C)C(=O)N(C)[C@@H](Cc2ccccc2)C(=O)N[C@@H](Cc2ccc(O)cc2)C(=O)N(C)CC(=O)N[C@@H](Cc2c[nH]c3ccccc23)C(=O)N[C@@H](Cc2ccc(Cl)cc2)C(=O)N[C@@H](CC(C)C)C(=O)N[C@H](C(=O)NCC(N)=O)CSCC(=O)N[C@@H](Cc2ccccc2)C(=O)N(C)[C@@H](Cc2ccccc2)C(=O)N1C [Example 3099] ({CH2CO}-F[NMeF][NMeNle][Sar]DV[NMeF]Y[Sar]W[Phe(4-Cl)]LCG-NH2; thioether N-13)
< 7.13
